System: Panc1 cells
Test: Cell proliferation (cell counting) of Panc1 cells after siRNA transfection
Assay type: cell-based, human
Conditions: vs control oligonucleotide
Property: cell proliferation / cell growth

siMALAT-1a: siRNA for MALAT-1 knockdown, SEQ ID NO:5 (GGCAAUAGAGGCCCUUAA; listed as RNA, chemistry not given here)	significant inhibition
siMALAT-1b: siRNA for MALAT-1 knockdown, SEQ ID NO:6 (GAAUUCCGGUGAUGCGAGU; listed as RNA, chemistry not given here)	significant inhibition
